Parameter IC50, tested on Full-length human PRMT3 (Homo sapiens), listed per item.
Sequence (O60678 with tags, fused parts or gaps): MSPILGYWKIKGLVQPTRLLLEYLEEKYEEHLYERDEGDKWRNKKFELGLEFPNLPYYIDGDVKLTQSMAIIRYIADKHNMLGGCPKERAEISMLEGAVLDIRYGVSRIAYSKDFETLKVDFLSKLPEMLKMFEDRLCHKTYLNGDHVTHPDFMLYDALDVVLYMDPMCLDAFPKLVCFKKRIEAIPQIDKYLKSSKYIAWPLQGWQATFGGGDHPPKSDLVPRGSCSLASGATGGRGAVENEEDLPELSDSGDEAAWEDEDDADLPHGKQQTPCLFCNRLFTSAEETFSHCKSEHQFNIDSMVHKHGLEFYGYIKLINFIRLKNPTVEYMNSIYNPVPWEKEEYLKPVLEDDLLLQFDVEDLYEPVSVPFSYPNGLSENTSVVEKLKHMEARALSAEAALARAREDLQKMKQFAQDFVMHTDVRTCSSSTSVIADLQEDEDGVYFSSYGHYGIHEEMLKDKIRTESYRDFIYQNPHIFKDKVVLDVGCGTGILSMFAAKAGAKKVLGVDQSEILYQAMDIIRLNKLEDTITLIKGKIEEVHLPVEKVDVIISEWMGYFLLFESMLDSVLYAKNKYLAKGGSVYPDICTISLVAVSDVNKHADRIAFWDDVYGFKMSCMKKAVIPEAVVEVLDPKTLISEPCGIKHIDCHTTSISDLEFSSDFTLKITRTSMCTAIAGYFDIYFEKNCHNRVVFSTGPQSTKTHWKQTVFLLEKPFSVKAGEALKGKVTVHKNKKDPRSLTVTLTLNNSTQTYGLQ

{"columns": ["compound", "IC50"],
 "data": [
  ["CNCCN(C)Cc1cn(CCCC(O)CO)nc1-c1ccc(F)cc1 (stereo not drawn) [Compound 30]", "> 10 µM"],
  ["CN(CCN)Cc1c[nH]nc1-c1ccc(F)c(Cl)c1 [Compound 124]", "1.01 to 3 µM"],
  ["CNCCN(C)Cc1cn(C(C)C)nc1-c1ccc(F)cc1 [Compound 15]", "> 10 µM"],
  ["Cc1ccccc1-c1n[nH]cc1CN(C)CCN [Compound 161]", "> 10 µM"],
  ["CCNC(=O)c1cccc(-c2n[nH]cc2CN(C)CCNC)c1 [Compound 43]", "> 10 µM"],
  ["CNCCN(C)Cc1c[nH]nc1-c1ccc(F)cc1F [Compound 49]", "3.01 to 10 µM"],
  ["CCn1ncc(CN(C)CCNC)c1-c1ccc(F)cc1 [Compound 7]", "> 10 µM"],
  ["CN(CCN)Cc1c[nH]nc1-c1cc(Cl)cc(Cl)c1 [Compound 137]", "3.01 to 10 µM"],
  ["CN(CCN)Cc1c[nH]nc1-c1ccc(OC(F)(F)F)cc1 [Compound 93]", "3.01 to 10 µM"],
  ["CNCCN(C)Cc1cnn(C)c1-c1ccc(F)cc1 [Compound 10]", "> 10 µM"],
  ["CN(CCN)Cc1c[nH]nc1-c1cccc(Cl)c1 [Compound 122]", "3.01 to 10 µM"],
  ["CCCN(CCN)Cc1c[nH]nc1-c1ccc(F)cc1 [Compound 63]", "> 10 µM"],
  ["CNCCN(C)Cc1c[nH]nc1-c1ccccc1OC(F)(F)F [Compound 40]", "> 10 µM"],
  ["COc1ccc(-c2n[nH]cc2CN(C)CCN)cc1Cl [Compound 125]", "3.01 to 10 µM"],
  ["CN(CCN)Cc1c[nH]nc1-c1cccc(N(C)C)c1 [Compound 149]", "3.01 to 10 µM"],
  ["CC(C)N(CCN)Cc1c[nH]nc1-c1ccc(F)cc1 [Compound 75]", "> 10 µM"],
  ["COc1ccc(-c2n[nH]cc2CN(C)CCN)c(F)c1 [Compound 107]", "3.01 to 10 µM"],
  ["CN(CCN)Cc1cn(CC(O)CO)nc1-c1ccc(F)cc1 (stereo not drawn) [Compound 76]", "> 10 µM"],
  ["CN(CCN)Cc1c[nH]nc1-c1ccccc1F [Compound 72]", "> 10 µM"],
  ["CN(CCN)Cc1c[nH]nc1-c1ccc(Cl)cc1 [Compound 95]", "1.01 to 3 µM"],
  ["CNCCN(C)Cc1c[nH]nc1-c1cccc(N)c1 [Compound 32]", "1.01 to 3 µM"]
]}

Values compiled from patent US9346761B2.
